test: chemical genetic growth profiling, strain panel (AID 1159580);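 also: tested at 20 µM; growth read once vehicle control cultures reached saturation at 30 °C; 1 = growth at the plate median or of vehicle wells; lower values mean less growth of the strain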; settings: S. cerevisiae deletion strains, growth OD, locus YLR371W, strain rom2, stronger effect = lower value
Out of some 5,500 compounds screened, about 2,000 (36%) were called active. Another 18% or so got no clear call; they are omitted. This is one part of the list.
Catalogue of normalized growth values
Form rule: numeric answer, no unit written next to it.

# Compound, normalized growth
data = [
    ("CCC(C)C(=O)O[C@@H]1C[C@@]2(C)[C@H](c3ccoc3)OC(=O)CC23OC2(C)OC34[C@H](OC(=O)C(C)C)[C@@]3(O)[C@@H](OC(=O)C5(C)OC5C)[C@@]5(C)C[C@]3(O)[C@@](C)([C@H]5CC(=O)OC)C14O2 (some centres undefined)", 1.01),
    ("COC(=O)C[C@H]1C2(C)CC34OC5(C)O[C@@]6([C@H](OC)C(OC(=O)C(C)C)[C@]7(C)C(/C(=C(/OC)C(C)C)C(=O)O[C@H]7c7ccoc7)[C@@]6(O5)[C@H](OC)[C@@]3(OC)C2OC(C)=O)[C@]14C (some centres undefined)", 1.04),
    ("NCCCS(=O)(=O)O", 0.934),
    ("COC(=O)C[C@H]1C2(C)CC34OC5(C)O[C@@]6([C@H](OC(C)=O)C(OC(C)=O)[C@]7(C)C(/C(=C(/O)C(C)C)C(=O)O[C@H]7c7ccoc7)[C@@]6(O5)[C@H](OC(C)=O)[C@@]3(O)C2OC(=O)C(C)C)[C@]14C (some centres undefined)", 0.99),
    ("CCC(C)C(=O)OC1CC2(C)C(c3ccoc3)OC(=O)CC23OC2(C)OC34C(OC(=O)C(C)C)C3(O)C(OC(=O)C5(C)OC5C)C5(C)CC3(O)C(C)(C5C(=O)OC)C14O2 (centres undefined)", 1.03),
]

[ask] # input compound: "NCCc1cnc[nH]1" ; wanted: its normalized growth
[reply] 1

[ask] Item: CCn1cc(C(=O)O)c(=O)c2cc(F)c(N3CCNC(C)C3)c(F)c21 (centres undefined)
[reply] 0.992

[ask] Item: CCC(C)C(=O)O[C@@H]1C[C@@]2(C)[C@H](c3ccoc3)OC(=O)CC23OC2(C)O[C@]14[C@]1(C)[C@@H](CC(=O)OC)C5(C)CC1(O)[C@](O)(C5OC(=O)C1(C)OC1C)[C@@H](OC(C)=O)[C@]34O2 (some centres undefined)
[reply] 1.01

[ask] Item: "C[C@H]1COc2c(N3CCN(C)CC3)c(F)cc3c(=O)c(C(=O)O)cn1c23"
[reply] 1

[ask] Item: C/C=C(\C)C(=O)O[C@H]1C[C@@H](OC(C)=O)[C@@]2(C(=O)OC)CO[C@@H]3C2[C@]12CO[C@](O)(C(=O)OC)[C@H]2[C@](C)(C12O[C@@]1(C)[C@H]1C[C@@H]2OC2OC=C[C@@]21O)[C@@H]3O (some centres undefined)
[reply] 0.971

[ask] Item: CC1COc2c(N3CCN(C)CC3)c(F)cc3c(=O)c(C(=O)O)cn1c23 (centres undefined)
[reply] 1.02
